Just for reference, patent US20240417764A1 is where these values come from.

Target: endogenous Escherichia coli tryptophan synthase beta subunit (TrpB) (Escherichia coli, UniProt P0A879)
Construct: Yield for production of tryptophan derivatives by native E. coli TrpB from indole derivatives; endogenous in cells; host or cells: E. coli BL21 Star (DE3) carrying pETM6-SDM2x (empty vector for the TrpB-alone study)
Sequence (P0A877 whole entry): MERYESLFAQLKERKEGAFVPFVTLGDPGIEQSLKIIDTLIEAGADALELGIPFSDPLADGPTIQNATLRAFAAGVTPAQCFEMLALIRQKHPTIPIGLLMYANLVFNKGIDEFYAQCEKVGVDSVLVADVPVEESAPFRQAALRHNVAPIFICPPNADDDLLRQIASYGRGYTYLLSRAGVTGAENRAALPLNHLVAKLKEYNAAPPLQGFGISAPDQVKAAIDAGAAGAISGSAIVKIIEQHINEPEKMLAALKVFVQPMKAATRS
Sequence (P0A879 2-397): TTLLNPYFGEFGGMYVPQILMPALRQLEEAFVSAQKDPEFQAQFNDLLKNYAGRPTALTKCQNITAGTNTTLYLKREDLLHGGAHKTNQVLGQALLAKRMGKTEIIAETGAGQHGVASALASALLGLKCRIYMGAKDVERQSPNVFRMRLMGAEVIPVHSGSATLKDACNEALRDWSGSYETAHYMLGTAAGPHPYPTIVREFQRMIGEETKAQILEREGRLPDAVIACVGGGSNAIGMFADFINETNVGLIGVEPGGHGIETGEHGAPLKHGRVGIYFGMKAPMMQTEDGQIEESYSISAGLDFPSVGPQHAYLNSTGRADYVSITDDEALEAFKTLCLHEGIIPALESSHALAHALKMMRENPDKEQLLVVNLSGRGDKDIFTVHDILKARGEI
Assay: TrpB substrate flexibility, in vivo conversion of substituted indoles to tryptophans
Assay type: cell-based
Details: with supplemental serine 4.5 g/L; sampled at 24 h

# compound, TrpB proficiency
measured = [
    ("Cc1cccc2cc[nH]c12", "100%"),
    ("Oc1ccc2cc[nH]c2c1 [6-hydroxyindole]", "3%"),
    ("Ic1cccc2cc[nH]c12", "100%"),
    ("Fc1cccc2[nH]ccc12", "100%"),
    ("Oc1cccc2[nH]ccc12 [4-hydroxyindole]", "100%"),
    ("Nc1cccc2[nH]ccc12", "23%"),
    ("Cc1cccc2[nH]ccc12", "93%"),
    ("Fc1cccc2cc[nH]c12", "95%"),
    ("COc1cccc2cc[nH]c12", "100%"),
    ("Oc1cccc2cc[nH]c12 [7-hydroxyindole]", "100%"),
    ("Brc1cccc2cc[nH]c12", "100%"),
    ("Cc1cc2ccccc2[nH]1", "100%"),
]
